Listing: pKd of selected binders
Biological target: T1, phosphorylated Flag-GBP1 (GBP1pS156) purified from THP-1ΔGBP1+Tet-Flag-GBP1 WT cells (human, UniProt P32455 1-592, phosphoserine at 156)
T1 chain: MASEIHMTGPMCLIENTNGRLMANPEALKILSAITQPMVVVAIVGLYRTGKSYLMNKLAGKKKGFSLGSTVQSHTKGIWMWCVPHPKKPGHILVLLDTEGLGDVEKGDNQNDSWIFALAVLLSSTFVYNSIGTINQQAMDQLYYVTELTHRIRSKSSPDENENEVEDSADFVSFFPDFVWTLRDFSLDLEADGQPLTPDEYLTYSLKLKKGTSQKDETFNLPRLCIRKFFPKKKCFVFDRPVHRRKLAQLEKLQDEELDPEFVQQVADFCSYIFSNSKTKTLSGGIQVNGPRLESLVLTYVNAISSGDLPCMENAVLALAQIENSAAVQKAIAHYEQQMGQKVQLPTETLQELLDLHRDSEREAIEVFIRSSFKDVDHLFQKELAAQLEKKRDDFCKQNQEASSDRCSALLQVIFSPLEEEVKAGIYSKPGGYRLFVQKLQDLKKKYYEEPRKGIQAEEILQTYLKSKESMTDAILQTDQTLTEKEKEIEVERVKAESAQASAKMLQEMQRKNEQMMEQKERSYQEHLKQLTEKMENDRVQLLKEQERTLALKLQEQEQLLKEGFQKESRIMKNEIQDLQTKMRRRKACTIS
Assay: GBP1 phosphorylated at S156; semi-quantitative co-IP
pKd: −log10 of the molar value.

Binder	pKd
HA-14-3-3θ (natural protein) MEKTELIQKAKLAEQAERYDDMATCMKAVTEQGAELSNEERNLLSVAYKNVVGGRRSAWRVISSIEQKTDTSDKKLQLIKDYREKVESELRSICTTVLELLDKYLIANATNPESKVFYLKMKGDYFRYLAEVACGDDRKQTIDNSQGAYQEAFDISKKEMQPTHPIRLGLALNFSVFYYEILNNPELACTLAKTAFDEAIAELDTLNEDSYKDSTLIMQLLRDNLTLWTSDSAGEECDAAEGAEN	5.76
HA-14-3-3β (natural protein) MTMDKSELVQKAKLAEQAERYDDMAAAMKAVTEQGHELSNEERNLLSVAYKNVVGARRSSWRVISSIEQKTERNEKKQQMGKEYREKIEAELQDICNDVLELLDKYLIPNATQPESKVFYLKMKGDYFRYLSEVASGDNKQTTVSNSQQAYQEAFEISKKEMQPTHPIRLGLALNFSVFYYEILNSPEKACSLAKTAFDEAIAELDTLNEESYKDSTLIMQLLRDNLTLWTSENQGDEGDAGEGEN	5.64
HA-14-3-3ζ (natural protein) MDKNELVQKAKLAEQAERYDDMAACMKSVTEQGAELSNEERNLLSVAYKNVVGARRSSWRVVSSIEQKTEGAEKKQQMAREYREKIETELRDICNDVLSLLEKFLIPNASQAESKVFYLKMKGDYYRYLAEVAAGDDKKGIVDQSQQAYQEAFEISKKEMQPTHPIRLGLALNFSVFYYEILNSPEKACSLAKTAFDEAIAELDTLSEESYKDSTLIMQLLRDNLTLWTSDTQGDEAEAGEGGEN	5.95
